Target: MAGE-A11:PCF11 interaction (GST-MAGE-A11 and FAM-PCF11_4) (Homo sapiens)
Construct: GST-MAGE-A11 MHD (human MAGE-A11 MHD amino acid 218-429); made in house; host or cells: E. coli BL21(DE3)
Experiment: TR-FRET primary / single point screen at 15 µM
Format: binding
Details: single point TR-FRET screening of 797 quinoline compounds against MAGE-A11:PCF11
Below, each entry is listed with its recorded percent inhibition (TR-FRET).

[
  {
    "smiles-entry": "Clc1ccc2c(NC3CCN(CC4CCCCC4)CC3)ccnc2c1",
    "percent inhibition (TR-FRET)": 15.4273
  },
  {
    "smiles-entry": "CCCN(CCCCNc1ccnc2cc(Cl)ccc12)Cc1ccc[nH]1",
    "percent inhibition (TR-FRET)": -0.9977
  },
  {
    "smiles-entry": "Cc1ccc2ncc(S(=O)(=O)c3ccccc3)c(N3CCN(Cc4ccccc4)CC3)c2c1",
    "percent inhibition (TR-FRET)": 2.673
  },
  {
    "smiles-entry": "Cc1ccc(CN(CCCCNc2ccnc3cc(Cl)ccc23)Cc2ccccc2)s1",
    "percent inhibition (TR-FRET)": 20.7072
  },
  {
    "smiles-entry": "Cc1cc(C)c(CN2CCC(Nc3ccnc4cc(Cl)ccc34)CC2)c(C)c1",
    "percent inhibition (TR-FRET)": 11.7451
  },
  {
    "smiles-entry": "CCCCN(CCCC)CC(=O)Nc1c2c(nc3ccccc13)N(C)CC2",
    "percent inhibition (TR-FRET)": 2.503
  },
  {
    "smiles-entry": "CCOC(=O)c1cnc2ccc(OCC)cc2c1N1CCN(C)CC1",
    "percent inhibition (TR-FRET)": -7.064
  },
  {
    "smiles-entry": "CN1CCN(c2c(C(=O)c3ccccc3)cnc3ccc(Cl)cc23)CC1",
    "percent inhibition (TR-FRET)": -5.573
  },
  {
    "smiles-entry": "Clc1ccc2c(NCCCCN(Cc3ccccc3)Cc3cccnc3Br)ccnc2c1",
    "percent inhibition (TR-FRET)": 2.377
  },
  {
    "smiles-entry": "Clc1ccc2c(NCCNCC[C@H]3CC[C@]4(CC3)OO[C@]3(O4)C4CC5CC(C4)CC3C5)ccnc2c1",
    "percent inhibition (TR-FRET)": 18.3966
  },
  {
    "smiles-entry": "CCC(CC)CN1CCC(Nc2ccnc3cc(Cl)ccc23)CC1",
    "percent inhibition (TR-FRET)": 9.754
  },
  {
    "smiles-entry": "CCC(CC)CNCCCNc1c2ccc(Cl)cc2nc2ccc(OC)cc12",
    "percent inhibition (TR-FRET)": -427.368
  },
  {
    "smiles-entry": "CCOC(=O)c1cnc2c(C)cc(C)cc2c1NCCN1CCOCC1",
    "percent inhibition (TR-FRET)": 8.869
  },
  {
    "smiles-entry": "CCCN(CCCNc1c2ccc(Cl)cc2nc2ccc(OC)cc12)Cc1cn(C)c2ccccc12",
    "percent inhibition (TR-FRET)": -162.244
  },
  {
    "smiles-entry": "CCc1ccc2ncc(S(=O)(=O)c3ccc(OC)cc3)c(N3CCN(c4ccc(F)cc4)CC3)c2c1",
    "percent inhibition (TR-FRET)": -9.084
  },
  {
    "smiles-entry": "CCOC(=O)c1ccc2ncc(C(=O)OCC)c(NCCN3CCOCC3)c2c1",
    "percent inhibition (TR-FRET)": 0.6542
  },
  {
    "smiles-entry": "O=[N+]([O-])c1ccc(CN2CCC(Nc3ccnc4cc(Cl)ccc34)CC2)cc1",
    "percent inhibition (TR-FRET)": -4.954
  },
  {
    "smiles-entry": "CCCN(CCCNc1c2ccc(Cl)cc2nc2ccc(OC)cc12)CCCc1ccccc1",
    "percent inhibition (TR-FRET)": -267.24
  },
  {
    "smiles-entry": "CCCN(CCCNc1c2ccc(Cl)cc2nc2ccc(OC)cc12)Cc1cccc(C)c1",
    "percent inhibition (TR-FRET)": -157.809
  },
  {
    "smiles-entry": "Clc1ccc2c(NCCCCN(Cc3ccccc3)Cc3ccccn3)ccnc2c1",
    "percent inhibition (TR-FRET)": 9.5313
  },
  {
    "smiles-entry": "CN(C)c1ccc(CN2CCC(Nc3ccnc4cc(Cl)ccc34)CC2)cc1",
    "percent inhibition (TR-FRET)": 13.0905
  },
  {
    "smiles-entry": "COc1ccc2nc3cc(Cl)ccc3c(NCCCNCCC(C)(C)C)c2c1",
    "percent inhibition (TR-FRET)": -456.31
  },
  {
    "smiles-entry": "CCOc1ccc2ncc(S(=O)(=O)c3ccc(C)c(C)c3)c(N3CCN(C)CC3)c2c1",
    "percent inhibition (TR-FRET)": -14.0527
  },
  {
    "smiles-entry": "CC(C)CN(CCCCNc1ccnc2cc(Cl)ccc12)Cc1ccccc1",
    "percent inhibition (TR-FRET)": 25.4682
  },
  {
    "smiles-entry": "COc1ccc(F)cc1CN1CCC(Nc2ccnc3cc(Cl)ccc23)CC1",
    "percent inhibition (TR-FRET)": 6.1527
  },
  {
    "smiles-entry": "Clc1ccc2c(NCCCCN(Cc3ccccc3)Cc3ccc4ccccc4c3)ccnc2c1",
    "percent inhibition (TR-FRET)": 24.6356
  },
  {
    "smiles-entry": "CCCN(CCCNc1c2ccc(Cl)cc2nc2ccc(OC)cc12)Cc1ccccc1[N+](=O)[O-]",
    "percent inhibition (TR-FRET)": -228.339
  },
  {
    "smiles-entry": "CCN1CCN(c2c(S(=O)(=O)c3ccc(Cl)cc3)cnc3ccccc23)CC1",
    "percent inhibition (TR-FRET)": -2.261
  },
  {
    "smiles-entry": "CCOC(=O)c1cnc2ccc(OC)cc2c1N1CCN(C)CC1",
    "percent inhibition (TR-FRET)": -2.791
  },
  {
    "smiles-entry": "O=S(=O)(c1ccccc1)c1cnc2ccc(F)cc2c1N1CCN(c2ccccc2F)CC1",
    "percent inhibition (TR-FRET)": -99.0552
  },
  {
    "smiles-entry": "CCN1CCN(c2c(S(=O)(=O)c3ccc(OC)cc3)cnc3cc(OC)c(OC)cc23)CC1",
    "percent inhibition (TR-FRET)": 7.411
  },
  {
    "smiles-entry": "CCOC(=O)c1cnc2c(C)cc(Cl)cc2c1NCCN(C)C",
    "percent inhibition (TR-FRET)": 3.834
  },
  {
    "smiles-entry": "COc1ccc2nc3cc(Cl)ccc3c(NCCCNCc3cc(F)ccc3F)c2c1",
    "percent inhibition (TR-FRET)": -327.201
  },
  {
    "smiles-entry": "FC(F)(F)Oc1ccccc1CN(CCCCNc1ccnc2cc(Cl)ccc12)Cc1ccccc1",
    "percent inhibition (TR-FRET)": 30.8594
  },
  {
    "smiles-entry": "COc1ccc(N2CCN(c3c(S(=O)(=O)c4ccc(C)cc4)cnc4ccc(Cl)cc34)CC2)cc1",
    "percent inhibition (TR-FRET)": -5.838
  }
]

---

Target: MAGE-A11:PCF11 interaction (GST-MAGE-A11 MHD and FAM-PCF11_4) (Homo sapiens)
Construct: GST-MAGE-A11 MHD (human MAGE-A11 MHD amino acid 218-429); made in house; host or cells: E. coli BL21(DE3)
Sequence (P43364 218-429): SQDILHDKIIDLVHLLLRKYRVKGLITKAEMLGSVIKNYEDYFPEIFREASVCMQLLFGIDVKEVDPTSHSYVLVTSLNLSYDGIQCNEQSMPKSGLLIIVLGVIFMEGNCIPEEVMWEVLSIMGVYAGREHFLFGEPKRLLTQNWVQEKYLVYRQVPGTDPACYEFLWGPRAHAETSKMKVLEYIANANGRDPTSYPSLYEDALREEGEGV
Test: TR-FRET dose response test of compounds for disruption of MAGE-A11:PCF11 binding
Settings: Supplementary Data 3, 59 quinoline compounds; read-out: TR-FRET IC50
Description: The TR-FRET assay buffer with a formula of 50 mM Tris pH 7.5, 20 mM MgCl2, 0.1 mg/ml BSA and 1 mM DTT was freshly prepared before each experiment. […] After incubation, the fluorescent emission signals at 520 nm and 490 nm channels of individual wells were measured with a PHERAstar FS plate reader (BMG Labtech; Durham, NC, USA) by using a 340 nm excitation filter, 100 µs delay time, and 200 µs integration time. […]
Below, each entry is listed with its recorded IC50.
reported-metric: IC50

[
  {
    "compound": "Clc1ccc2c(NCCCCN(Cc3ccccc3)Cc3csc4ccccc34)ccnc2c1",
    "recorded-result": "> 70 µM"
  },
  {
    "compound": "FC(F)(F)c1ccc2c(NCCCNCc3ccc[nH]3)ccnc2c1 [SJ000361105-1, FC(F)(F)c1ccc2c(NCCCNCc3ccc[nH]3)ccnc2c1]",
    "recorded-result": "33 µM"
  },
  {
    "compound": "FC(F)(F)Oc1cccc(CN(CCCCNc2ccnc3cc(Cl)ccc23)Cc2ccccc2)c1",
    "recorded-result": "> 70 µM"
  },
  {
    "compound": "CCCN(CCCNc1ccnc2cc(C(F)(F)F)ccc12)Cc1ccccc1OC",
    "recorded-result": "> 70 µM"
  },
  {
    "compound": "c1coc(CNCCCNc2ccnc3cc(C4CCCCC4)ccc23)c1",
    "recorded-result": "> 70 µM"
  },
  {
    "compound": "CCCN(CCCNc1ccnc2cc(C(F)(F)F)ccc12)CC1CCCCC1",
    "recorded-result": "> 70 µM"
  },
  {
    "compound": "FC(F)(F)c1ccc(-c2ccc3c(NCCCNCc4ccco4)ccnc3c2)cc1",
    "recorded-result": "22.7 µM"
  },
  {
    "compound": "c1coc(CNCCCNc2ccnc3cc(-c4cccc5ccccc45)ccc23)c1",
    "recorded-result": "> 70 µM"
  },
  {
    "compound": "CC(C)(C)CCN(CCCCNc1ccnc2cc(Cl)ccc12)Cc1ccccc1",
    "recorded-result": "> 70 µM"
  },
  {
    "compound": "CCCN(CCCNc1ccnc2cc(C(F)(F)F)ccc12)Cc1ccc[nH]1",
    "recorded-result": "> 70 µM"
  },
  {
    "compound": "CCCN(CCCNc1ccnc2cc(C(F)(F)F)ccc12)CC(CC)CC",
    "recorded-result": "> 70 µM"
  },
  {
    "compound": "FC(F)(F)c1ccc2c(NCCCNCc3csc4ccccc34)ccnc2c1",
    "recorded-result": "> 70 µM"
  }
]
